Provide the reported log10(IC50) of each item.
Molecular target: pEGFR (Tyr1068) in PC-9 cells (Ex19Del) (Homo sapiens (Human), UniProt P00533, DEL746-750)
Sequence (P00533 other isoform, or with tags, fused parts or gaps del 746-750): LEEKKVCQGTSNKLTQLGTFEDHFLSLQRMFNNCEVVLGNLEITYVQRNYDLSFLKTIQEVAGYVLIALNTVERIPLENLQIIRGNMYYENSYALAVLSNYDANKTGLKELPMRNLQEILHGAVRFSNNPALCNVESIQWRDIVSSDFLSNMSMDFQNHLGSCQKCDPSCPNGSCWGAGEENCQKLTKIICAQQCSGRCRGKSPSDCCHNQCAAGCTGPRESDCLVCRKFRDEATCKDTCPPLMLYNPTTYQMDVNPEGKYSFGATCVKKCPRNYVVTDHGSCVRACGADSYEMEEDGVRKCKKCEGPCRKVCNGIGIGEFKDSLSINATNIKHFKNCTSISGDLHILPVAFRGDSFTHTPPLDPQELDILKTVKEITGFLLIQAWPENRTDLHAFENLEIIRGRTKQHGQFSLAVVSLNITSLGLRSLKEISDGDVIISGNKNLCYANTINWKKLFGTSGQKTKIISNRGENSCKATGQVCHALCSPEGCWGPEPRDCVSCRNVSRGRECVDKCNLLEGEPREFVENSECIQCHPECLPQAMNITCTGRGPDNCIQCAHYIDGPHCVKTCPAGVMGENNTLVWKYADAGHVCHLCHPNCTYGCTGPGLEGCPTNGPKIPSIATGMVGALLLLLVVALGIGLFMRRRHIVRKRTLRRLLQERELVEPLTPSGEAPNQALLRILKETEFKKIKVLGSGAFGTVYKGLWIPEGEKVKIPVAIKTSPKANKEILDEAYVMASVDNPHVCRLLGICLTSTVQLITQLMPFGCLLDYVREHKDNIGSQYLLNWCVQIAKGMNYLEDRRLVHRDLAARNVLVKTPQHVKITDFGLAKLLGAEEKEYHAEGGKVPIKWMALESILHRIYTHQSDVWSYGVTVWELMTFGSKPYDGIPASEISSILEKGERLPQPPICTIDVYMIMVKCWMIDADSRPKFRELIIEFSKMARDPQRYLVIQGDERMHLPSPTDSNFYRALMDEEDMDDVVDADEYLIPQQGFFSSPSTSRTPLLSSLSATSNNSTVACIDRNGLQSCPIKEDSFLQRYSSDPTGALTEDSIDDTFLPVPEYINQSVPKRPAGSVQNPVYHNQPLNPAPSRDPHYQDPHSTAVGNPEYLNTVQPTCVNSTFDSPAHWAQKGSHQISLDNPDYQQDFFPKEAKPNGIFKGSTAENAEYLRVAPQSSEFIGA
Assay: PC-9 pEGFR AlphaLISA assay
Conditions: 4 hours incubation, p-EGFR (Tyr1068) AlphaLISA, read-out: Ext pEGFR_PC-9 Ex19Del IC50
Heads up, the numbers here are log10 of IC50 in nM units.

Some solved cases for reference:
# Compound, log10(IC50)
rows = [
    ("COc1cc2ncnc(-c3cn(CC(F)F)nc3-c3ccccc3)c2cc1C(C)(C)O [Example 122]", 0.45),
    ("COc1cc2ncnc(-c3cn(C)nc3-c3ccccc3)c2cc1NC(=O)N1C[C@@H](C)OC[C@@H]1C [Example 183]", 1.03),
    ("COc1cc2ncnc(-c3cn(C)nc3-c3ccccc3F)c2nc1NC(=O)[C@]12C[C@H]1CN(C)C2 [Example 374]", 0.56),
    ("COc1cc2ncnc(-c3cn(C)nc3-c3ccccc3)c2cc1[C@@H](C)O (single isomer, unassigned) [Example 115]", 1.03),
    ("COc1cc2ncnc(-c3cn(C)nc3-c3ccccc3)c2cc1-c1cccc2[nH]ncc12 [Example 143]", 0.51),
    ("COc1cc2ncnc(-c3cn(C)nc3-c3ccccc3)c2cc1NC(=O)c1ccnn1C(F)(F)F [Example 204]", 0.15),
]

// each compound listed below needs its log10(IC50)
1. COc1cc2ncnc(-c3c[nH]nc3-c3ccc(F)cc3)c2nc1NC(=O)[C@]12COC[C@H]1C2 [Example 467]
2. COc1cc2ncnc(-c3cn(C)nc3-c3ccccc3F)c2cc1NC(=O)[C@]12COC[C@H]1C2 (single isomer, unassigned) [Example 241]
3. COc1cc2ncnc(-c3cn(C)nc3-c3ccccc3)c2cc1NC(=O)c1cnn(C(F)(F)F)c1 [Example 187]
4. CCn1cc(-c2ncnc3cc(OC)c(NC(=O)[C@@]45COC[C@@H]4C5)cc23)c(-c2ccc(F)cc2)n1 [Example 334]
5. COc1cc2ncnc(-c3cn(C)nc3-c3cccc(O)c3)c2nc1NC(=O)C1(C(F)(F)F)CC1 [Example 422]
6. COc1cc2ncnc(-c3cn(C)nc3-c3ccccc3)c2cc1O[C@@H]1CN(C)C[C@@H]1F [Example 5]
7. COc1cc2ncnc(-c3cn(C)nc3-c3ccccc3)c2cc1OC(=O)N1[C@H](C)CNC[C@@H]1C [Example 87]
8. COc1cc2ncnc(-c3cn(C)nc3-c3ccccc3)c2nc1NC(=O)[C@@]1(C(F)(F)F)CCN(C)C1 (single isomer, unassigned) [Example 394]

Result ::
1. 0.72
2. 0.30
3. 0.60
4. 0.34
5. 0.61
6. 0.66
7. 0.76
8. 0.97

Measured log10(IC50), Cc1nn(C)c(-c2ccccc2)c1-c1ncnc2cc(-c3cnn(C)c3)ccc12 [Example 481] : 2.98

---

Target: EGFR L858R (Homo sapiens (Human), UniProt P00533, L858R)
Sequence (P00533 25-1210 L858R): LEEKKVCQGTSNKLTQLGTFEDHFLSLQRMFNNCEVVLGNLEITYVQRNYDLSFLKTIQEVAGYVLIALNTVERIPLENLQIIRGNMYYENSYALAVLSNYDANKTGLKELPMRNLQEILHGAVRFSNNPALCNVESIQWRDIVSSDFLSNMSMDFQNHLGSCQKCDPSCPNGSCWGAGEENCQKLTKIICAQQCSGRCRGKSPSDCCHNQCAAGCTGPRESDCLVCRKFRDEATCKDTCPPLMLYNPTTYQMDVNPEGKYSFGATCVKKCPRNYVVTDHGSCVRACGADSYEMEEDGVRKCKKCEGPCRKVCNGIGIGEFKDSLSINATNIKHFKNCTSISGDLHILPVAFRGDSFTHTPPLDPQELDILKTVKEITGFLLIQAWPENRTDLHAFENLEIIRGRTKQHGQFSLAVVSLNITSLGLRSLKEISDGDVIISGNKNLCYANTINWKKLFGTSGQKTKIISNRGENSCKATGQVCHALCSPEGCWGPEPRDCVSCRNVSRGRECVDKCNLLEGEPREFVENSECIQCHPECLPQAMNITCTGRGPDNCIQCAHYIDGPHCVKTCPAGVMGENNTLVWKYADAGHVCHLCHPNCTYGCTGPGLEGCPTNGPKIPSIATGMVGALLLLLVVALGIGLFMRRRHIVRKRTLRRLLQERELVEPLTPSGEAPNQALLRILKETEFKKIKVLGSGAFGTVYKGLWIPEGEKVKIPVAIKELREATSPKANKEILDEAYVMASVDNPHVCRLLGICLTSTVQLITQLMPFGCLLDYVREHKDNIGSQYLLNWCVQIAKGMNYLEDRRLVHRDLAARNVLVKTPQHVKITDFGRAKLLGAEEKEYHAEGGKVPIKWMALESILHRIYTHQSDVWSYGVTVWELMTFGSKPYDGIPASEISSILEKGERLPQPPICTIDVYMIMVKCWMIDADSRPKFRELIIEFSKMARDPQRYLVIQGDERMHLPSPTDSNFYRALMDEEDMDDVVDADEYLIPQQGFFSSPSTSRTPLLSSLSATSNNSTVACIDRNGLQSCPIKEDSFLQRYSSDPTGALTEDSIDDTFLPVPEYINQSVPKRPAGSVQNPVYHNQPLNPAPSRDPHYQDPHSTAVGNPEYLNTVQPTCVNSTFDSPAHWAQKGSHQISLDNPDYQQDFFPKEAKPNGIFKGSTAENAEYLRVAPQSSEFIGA
Assay: Biochemical EGFR inhibition assay, EGFR L858R
Conditions: Caliper mobility shift; 1.0 mM ATP or ATP Km; read-out: Enz EGFR_L858R IC50
Metric: IC50 (nM)
Answers are plain numbers, in nM.

Recorded IC50, per entry:
# Compound, Assayed target, Result units, IC50
rows = [
    ("Cn1cc(-c2ncnc3cc(OC(F)F)c(NC(=O)C4(C(F)(F)F)CC4)nc23)c(-c2ccccc2)n1 [Example 465]", "EGFR L858R (Homo sapiens (Human), UniProt P00533, L858R)", "nM", 4.9),
    ("CCOc1cc2ncnc(-c3cn(C)nc3-c3ccccc3)c2cc1Cn1ncnc1C [Example 134]", "EGFR L858R (Homo sapiens (Human), UniProt P00533, L858R)", "nM", 4),
    ("COc1cc2ncnc(-c3cn(C)nc3-c3ccccc3)c2cc1NC(=O)[C@@]1(C)CCCO1 (single isomer, unassigned) [Example 259]", "EGFR L858R (Homo sapiens (Human), UniProt P00533, L858R)", "nM", 2.6),
    ("Cn1cc(-c2ncnc3cc(C#CCN4CCOCC4)c(NC(=O)C45CC(C4)C5)nc23)c(-c2ccccc2)n1 [Example 454]", "EGFR L858R (Homo sapiens (Human), UniProt P00533, L858R)", "nM", 18.1),
    ("COc1cc2ncnc(-c3cn(C)nc3-c3ccccc3)c2cc1C(O)C1CC1 (stereo not shown) [Example 128]", "EGFR L858R (Homo sapiens (Human), UniProt P00533, L858R)", "nM", 3.6),
]

Provide the reported IC50 of each entry below, same order.
1. COc1cc2ncnc(-c3cn(C)nc3-c3ccccc3)c2cc1OC(=O)N1CCOCC1(C)C [Example 81]
2. COc1cc2ncnc(-c3cn(C)nc3-c3ccccc3)c2nc1NC(=O)[C@]1(C(F)(F)F)CCCN1C (single isomer, unassigned) [Example 430]

Result ::
1. 6.1
2. 19

---

Provide the recorded pIC50 for the entries that follow.
Target: EGFR (d746-750) (Homo sapiens (Human), UniProt P00533, DEL746-750)
Test: Biochemical EGFR inhibition assay, EGFR (d746-750)
Conditions: Caliper mobility shift; 1.0 mM ATP or ATP Km; read-out: Enz EGFR_Exon19-del746-750 IC50
Answers are plain numbers, as −log10 of the molar value.

# Molecule, Assayed target, pIC50
measured = [
    ("COc1cc2ncnc(-c3cn(C)nc3-c3ccccc3)c2cc1OC(=O)N1CCNCC1(C)C", "EGFR (d746-750) (Homo sapiens (Human), UniProt P00533, DEL746-750)", 8.60),
    ("Cn1cc(-c2ccc3c(-c4c[nH]nc4-c4ccccc4)ncnc3c2)cn1", "EGFR (d746-750) (Homo sapiens (Human), UniProt P00533, DEL746-750)", 9.15),
    ("CCOc1cc2ncnc(-c3cn(C)nc3-c3ccccc3)c2cc1OC(=O)N1CCO[C@H](C)C1", "EGFR (d746-750) (Homo sapiens (Human), UniProt P00533, DEL746-750)", 8.80),
]

Value sought for every listed molecule: pIC50.
1. COc1cc2ncnc(-c3cn(C)nc3-c3ccccc3)c2cc1OC(=O)N1CCN(C)C(C)(C)C1
2. COc1cc2c(-c3cn(C)nc3-c3ccccc3)ncnc2cc1N1CC2(CN(C(C)=O)C2)C1
3. COc1cc2ncnc(-c3cn(C)nc3-c3ccccc3)c2nc1NC(=O)C1(C(F)F)CC1
4. COc1cc2ncnc(-c3cn(C)nc3-c3ccccc3)c2cc1-c1cn(C)nc1C

Result ::
1. 8.46
2. 9.05
3. 9.15
4. 8.92

Hey, quick one: what's pIC50 for each of these?
1. COc1cc2ncnc(-c3cn(C)nc3-c3ccccc3)c2cc1NC(=O)c1ccccc1F
2. CC(C)Oc1cc2ncnc(-c3cn(C)nc3-c3ccccc3)c2cc1[C@H](C)O (single isomer, unassigned)

Result ::
1: 9.10; 2: 8.62

Give pIC50 for each listed item.
1. COc1cc2ncnc(-c3cn(CC(F)F)nc3-c3ccccc3)c2cc1NC(=O)c1cnc(C)s1
2. CCn1cc(-c2ncnc3cc(OC)c(NC(=O)c4cnn(C(F)(F)F)c4)nc23)c(-c2ccccc2)n1
3. COc1cc2ncnc(-c3cn(C)nc3-c3ccccc3)c2cc1OC1CCOCC1
4. COc1cc2ncnc(-c3cn(CC(F)F)nc3-c3ccccc3)c2cc1NC(=O)c1cncs1
5. COc1cc2ncnc(-c3cn(C)nc3-c3ccccc3)c2nc1NC(=O)[C@@]1(C(F)(F)F)CCCN1C (single isomer, unassigned)

Result ::
1. 9.05
2. 9.10
3. 8.70
4. 9.22
5. 8.57

Would you mind giving pIC50 for every molecule in the list below?
1. COc1cc2ncnc(-c3cn(C)nc3-c3ccc(F)cc3)c2cc1NC(=O)C1CC(F)(F)C1
2. COc1cc2ncnc(-c3cn(C)nc3-c3ccccc3)c2cc1NC(=O)c1cnccc1F
3. CCC(=O)Nc1cc2c(-c3cn(C)nc3-c3ccccc3)ncnc2cc1OC

Result ::
[9.70, 9.10, 8.77]

---

Exercise: for every item that follows, state its recorded IC50.
Molecular target: EGFR (d746-750) (Homo sapiens (Human), UniProt P00533, DEL746-750)
Assay: Biochemical EGFR inhibition assay, EGFR (d746-750)
Details: Caliper mobility shift; 1.0 mM ATP or ATP Km; read-out: Enz EGFR_Exon19-del746-750 IC50
Method: Reactions proceeded until between 10% to 20% total peptides were phosphorylated at room temperature (25° C.) and were terminated with 35 mM 2,2′,2″,2″-(ethane-1,2-diyldinitrilo)tetraacetic acid (EDTA). Product was detected using the Caliper mobility shift detection method where the phosphorylated peptide (product) and substrate were electrophoretically separated and measured. Percent activity was plotted against log concentration of compound and points to generate an apparent IC50.
Give bare numbers, in nM.

# Molecule, Assayed target, IC50, nM
measured = [
    ("COc1cc2ncnc(-c3cn(C)nc3-c3ccccc3)c2cc1NC(=O)c1cccc(F)c1Cl [Example 199]", "EGFR (d746-750) (Homo sapiens (Human), UniProt P00533, DEL746-750)", 1.1),
    ("COc1cc2ncnc(-c3cn(CC(F)F)nc3-c3ccccc3)c2cc1NC(=O)[C@]12COC[C@H]1C2 [Example 275]", "EGFR (d746-750) (Homo sapiens (Human), UniProt P00533, DEL746-750)", 1.3),
    ("COc1cc2ncnc(-c3cn(C)nc3-c3ccccc3)c2nc1NC(=O)C1(OC)CC1 [Example 436]", "EGFR (d746-750) (Homo sapiens (Human), UniProt P00533, DEL746-750)", 1),
]

Documented IC50 of CCOc1cc2ncnc(-c3cn(C)nc3-c3ccccc3)c2nc1NC(=O)[C@]12C[C@H]1CN(C)C2 (single isomer, unassigned) [Example 378] : 0.7

Measured values drawn from patent US20250236608A1 for this set.
